# Test system: ABL1-phosphorylated
# Reported Conditions: concentration: 1 μM, replicates: in singlicate; n = 1
I'd be grateful if you could share measured %Inh for these entries.
Answers are plain numbers, in %.

Check the records and state %Inh for COc1ccc(Nc2nccc(N3CCC(NC(=O)C(C)c4ccc(Cl)cc4)CC3)n2)cc1 (stereo not drawn) 0

Please give %Inh, item by item, for the list that follows.
1. CS(=O)(=O)CCNCc1nc(-c2ccc3ncnc(Nc4ccc(OCc5ccccc5)c(Cl)c4)c3c2)cs1.Cl
2. CNC(=O)c1ccc(C)c(-n2c(C)cc(OCc3ccc(F)cc3F)c(Br)c2=O)c1
3. NS(=O)(=O)c1cccc(N/C=C2\C(=O)Nc3ccc(S(=O)(=O)Cc4c(Cl)cccc4Cl)cc32)c1
4. COC(=O)c1cccc(NC(=O)NC2CCN(c3ccnc(Nc4ccc(OC)cc4)n3)C2)c1 (stereo not drawn)
5. CNc1nc(-c2ccc3c(N)n[nH]c3c2)cc(N2C[C@@H](C(=O)NC3CCCCC3)OC[C@H]2C)n1
6. O=C(Nc1n[nH]c2cc(-c3ccsc3)ccc12)C1CC1
7. COC(=O)C(NC(=O)NC1CCN(c2ccnc(Nc3ccc(F)cc3)n2)C1)c1ccccc1 (stereo not drawn)

1. 0
2. 0
3. 0
4. 0
5. 0
6. 11
7. 0

* * *

# Tested on: STK16
# Reported Conditions: concentration: 1 μM, replicates: in singlicate; n = 1
Measurement Name: %Inh
Quick note: unit goes after the number.

Below, each entry is followed by its recorded %Inh result.
Check the records and state %Inh for Cc1ccc(NC(=O)c2ccc(Cl)cc2)cc1-c1ccc(C(=O)Nc2ccncc2)cc1 7%

Check the records and state %Inh for CC(=O)c1c(C)c2cnc(Nc3ccn(C)n3)nc2n(C2CCCC2)c1=O 55%

Check the records and state %Inh for Cn1cnc2c(N)ncnc21 0%

Please give %Inh, item by item, for the list that follows.
1. CN1c2ccc(-c3ccc(C(N)=O)cc3)cc2-c2[nH]ncc2S1(=O)=O
2. CNc1cc(-c2ccc3c(N)n[nH]c3c2)nc(N)n1

["1%", "19%"]

Please give %Inh, item by item, for the list that follows.
1. Nc1nccc(-c2c(-c3ccc(F)cc3)ncn2C2CCN(Cc3ccccc3)CC2)n1
2. FC(F)(F)c1ccccc1-c1cc(-c2c[nH]nc2-c2ccccn2)ccn1
3. COc1ccc(CSc2nnc(-c3ccc4ncsc4c3)o2)cc1C(F)(F)F
4. Cn1cncc1C(=O)NC1CCN(c2ccnc(Nc3ccc(F)cc3)n2)C1 (stereo not drawn)

1: 0%; 2: 20%; 3: 15%; 4: 17%

* * *

# System: CDK9;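 further: kd values determined as follow-up on hits from a single-replicate KINOMEscan panel screen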
Measurement Name: Kd

Check the records and state Kd for Cc1nccc(-c2c(-c3ccc(F)cc3)ncn2CCCN2CCOCC2)n1.Cl [SB-282975] > 10 µM

* * *

# System: ROS1
# Reported Conditions: concentration: 1 μM, replicates: in singlicate; n = 1
I'd be grateful if you could share measured %Inh for these entries.
Answers are plain numbers, in %.

Check the records and state %Inh for Cn1cncc1-c1cc2c(Nc3ccc(OCc4ccccc4)cc3)ncnc2cn1 13

Check the records and state %Inh for CNC(=O)c1ccc(C)c(-n2c(C)cc(OCc3ccc(F)cc3F)c(Br)c2=O)c1 15

Check the records and state %Inh for Cc1nccc(-c2c(-c3ccc(F)cc3)ncn2CCCN2CCOCC2)n1.Cl 23

Check the records and state %Inh for COc1ccc(Nc2nccc(N3CCC(NC(=O)C(C)c4ccc(Cl)cc4)C3)n2)cc1 (stereo not shown) 17

Check the records and state %Inh for CN1c2ccc(-c3ccc(C(N)=O)cc3)cc2-c2[nH]ncc2S1(=O)=O 0

Please give %Inh, item by item, for the list that follows.
1. Cc1ccc(NC(=O)Nc2ccc(Cl)cc2)cc1-c1ccc(C(=O)Nc2ccncc2)cc1
2. CNc1nc(-c2ccc3c(N)n[nH]c3c2)cc(N2C[C@@H](C(=O)NC3CCCCC3)OC[C@H]2C)n1
3. O=C1NC(=O)C(c2ccc(Cl)cc2)=C1Nc1cccc(Cl)c1
4. COC(=O)c1cccc(NC(=O)NC2CCN(c3ccnc(Nc4ccc(OC)cc4)n3)C2)c1 (stereo not shown)
5. COc1cc2ncnc(Nc3cccc(Br)c3)c2cc1OC.Cl

0
19
0
0
28
